System: HCT-116
experimentalProtocol: Compound was tested in vitro for cytotoxicity against HCT116, human colon cancer cells (taxol-sensitive) at a drug concentration producing 50% inhibition of colony formation
measurementParameters: read-out: ID50 (the source's name)
observedProperty: pIC50
Remember the convention: pIC50 equals -log10 of concentration in molar.

INPUT: State its pIC50 for this molecule: CC[C@@]1(OC(=O)COc2ccc([N+](=O)[O-])cc2)C(=O)OCc2c1cc1n(c2=O)Cc2cc3ccccc3nc2-1
OUTPUT: 8.48

INPUT: State its pIC50 for this molecule: CC[C@@]1(OC(=O)COc2ccc(Cl)cc2C)C(=O)OCc2c1cc1n(c2=O)Cc2cc3ccccc3nc2-1
OUTPUT: 8.57

INPUT: State its pIC50 for this molecule: CC[C@@]1(OC(=O)COc2ccc(Br)cc2)C(=O)OCc2c1cc1n(c2=O)Cc2cc3ccccc3nc2-1
OUTPUT: 8.52

INPUT: State its pIC50 for this molecule: CC[C@@]1(OC(=O)COc2ccc3c(C)c(Cl)c(=O)oc3c2)C(=O)OCc2c1cc1n(c2=O)Cc2cc3ccccc3nc2-1
OUTPUT: 8.46

INPUT: State its pIC50 for this molecule: CC[C@@]1(OC(=O)COc2ccc3ccccc3c2)C(=O)OCc2c1cc1n(c2=O)Cc2cc3ccccc3nc2-1
OUTPUT: 8.52

INPUT: State its pIC50 for this molecule: CC[C@@]1(OC(=O)CCCOc2ccc(Cl)cc2Cl)C(=O)OCc2c1cc1n(c2=O)Cc2cc3ccccc3nc2-1
OUTPUT: 7.41

INPUT: State its pIC50 for this molecule: CC[C@@]1(O)C(=O)OCc2c1cc1n(c2=O)Cc2cc3ccccc3nc2-1
OUTPUT: 8.55

----------
Test system: PC-3
experimentalProtocol: Compound was tested in vitro for cytotoxicity against PC-3, human prostate cancer cells (taxol-sensitive) at a drug concentration producing 50% inhibition of colony formation
Type: functional
measurementParameters: read-out: ID50 (the source's name)
This listing pairs molecules with measured IC50.
# answer = value followed by unit

// below: answered molecules
{"columns": ["smilesCode", "tgt", "IC50"],
 "data": [
  ["CC[C@@]1(OC(=O)COc2ccc3ccccc3c2)C(=O)OCc2c1cc1n(c2=O)Cc2cc3ccccc3nc2-1", "PC-3", "3.9 nM"],
  ["CC[C@@]1(OC(=O)COc2ccc([N+](=O)[O-])cc2)C(=O)OCc2c1cc1n(c2=O)Cc2cc3ccccc3nc2-1", "PC-3", "4.8 nM"],
  ["CC[C@@]1(OC(=O)COc2ccc3c(c2)OCO3)C(=O)OCc2c1cc1n(c2=O)Cc2cc3ccccc3nc2-1", "PC-3", "4.6 nM"]
]}

Could you now consider this next molecule?
INPUT: State its IC50 for this molecule: CC[C@@]1(OC(=O)COc2ccc3c(C)c(Cl)c(=O)oc3c2)C(=O)OCc2c1cc1n(c2=O)Cc2cc3ccccc3nc2-1
OUTPUT: 3 nM

----------
This listing pairs molecules with measured pIC50.
System: NCI/ADR-RES
experimentalProtocol: Compound was tested in vitro for cytotoxicity against MCF-7ADR, human breast cancer cells (taxol-resistant) at a drug concentration producing 50% inhibition of colony formation
Assay type: functional
measurementParameters: read-out: ID50 (the source's name)
Remember the convention: pIC50 equals -log10 of concentration in molar.

// below: answered molecules
{"columns": ["smilesCode", "tgt", "pIC50"],
 "data": [
  ["CC[C@@]1(OC(=O)COc2ccc([N+](=O)[O-])cc2)C(=O)OCc2c1cc1n(c2=O)Cc2cc3ccccc3nc2-1", "NCI/ADR-RES", 8.15],
  ["CC[C@@]1(OC(=O)CCOc2ccccc2)C(=O)OCc2c1cc1n(c2=O)Cc2cc3ccccc3nc2-1", "NCI/ADR-RES", 7.55],
  ["CC[C@@]1(OC(=O)COc2ccc(Br)cc2)C(=O)OCc2c1cc1n(c2=O)Cc2cc3ccccc3nc2-1", "NCI/ADR-RES", 8.26],
  ["CC[C@@]1(OC(=O)CCCOc2ccc(Cl)cc2Cl)C(=O)OCc2c1cc1n(c2=O)Cc2cc3ccccc3nc2-1", "NCI/ADR-RES", 7.05],
  ["CC[C@@]1(OC(=O)CO[C@@H]2C[C@H](C)CC[C@H]2C(C)C)C(=O)OCc2c1cc1n(c2=O)Cc2cc3ccccc3nc2-1", "NCI/ADR-RES", 8.14],
  ["CC[C@@]1(OC(=O)COc2ccc3c(C)c(Cl)c(=O)oc3c2)C(=O)OCc2c1cc1n(c2=O)Cc2cc3ccccc3nc2-1", "NCI/ADR-RES", 8.28]
]}

INPUT: State its pIC50 for this molecule: CC[C@@]1(O)C(=O)OCc2c1cc1n(c2=O)Cc2cc3ccccc3nc2-1
OUTPUT: 8.41

INPUT: State its pIC50 for this molecule: CC[C@@]1(OC(=O)COc2ccc(Cl)cc2C)C(=O)OCc2c1cc1n(c2=O)Cc2cc3ccccc3nc2-1
OUTPUT: 8.37

INPUT: State its pIC50 for this molecule: CC[C@@]1(OC(=O)COc2ccc3ccccc3c2)C(=O)OCc2c1cc1n(c2=O)Cc2cc3ccccc3nc2-1
OUTPUT: 8.39

INPUT: State its pIC50 for this molecule: CC[C@@]1(OC(=O)COc2ccc3c(c2)OCO3)C(=O)OCc2c1cc1n(c2=O)Cc2cc3ccccc3nc2-1
OUTPUT: 8.30

Attribution: ChEMBL document CHEMBL1135295
